Where do these numbers come from? They come from ChEMBL document CHEMBL1142707.

biological target: Transthyretin (Homo sapiens) (UniProt P02766); assay: Binding stoichiometry to TTR in human blood plasma determined by antibody capture/HPLC method; format: cell-free
A collection of compounds and their measured Binding stoichiometry
# output: bare number, no unit

Oc1c(I)cc(/C=N/Oc2cc(Cl)cc(Cl)c2)cc1I | 0.55
O=C(O)c1ccc(/C=N/Oc2cc(Cl)cc(Cl)c2)cc1 | 0.78

--- query ---
Task: Request body: readout Binding stoichiometry, system Transthyretin (Homo sapiens) (UniProt P02766), query `O=C(O)c1cccc(O/N=C/c2c(Cl)cccc2Cl)c1` . Return the value.
Result: 0.71

* * *

A collection of molecules and their measured Binding stoichiometry
target: Transthyretin (Homo sapiens) (UniProt P02766); experiment: Binding stoichiometry to TTR in human blood plasma determined by antibody capture/HPLC method; type: cell-free

Before answering, review these 3 worked examples.
O=C(O)c1cccc(/C=N/Oc2cccc(C(F)(F)F)c2)c1 | < 0.5
O=C(O)c1cccc(O/N=C/c2cc(I)c(O)c(I)c2)c1 | < 0.5
O=C(O)c1cccc(O/N=C/c2cc(Br)c(O)c(Br)c2)c1 | < 0.5

--- query ---
Task: Quick check: Binding stoichiometry of `O=C(O)c1cccc(O/N=C/c2cc(Cl)cc(Cl)c2)c1` ?
Result: < 0.5

* * *

target: Transthyretin (Homo sapiens) (UniProt P02766); test: Percentage of WT-TTR (3.6 uM) amyloid fibril formation at pH 4.4 upon incubation with the compound (7.2 uM)
A collection of compounds and their measured Formation
Report as a plain number; the unit % is understood.

Before answering, review these 6 worked examples.
FC(F)(F)c1ccccc1O/N=C/c1c(Cl)cccc1Cl | 15
FC(F)(F)c1ccccc1/C=N/Oc1ccccc1C(F)(F)F | 83
O=C(O)c1ccccc1/C=N/Oc1cccc(C(F)(F)F)c1 | 84
FC(F)(F)c1ccc(/C=N/Oc2ccccc2C(F)(F)F)cc1 | 81
Oc1c(I)cc(/C=N/Oc2ccccc2C(F)(F)F)cc1I | 1
O=C(O)c1ccc(O/N=C/c2cc(I)c(O)c(I)c2)cc1 | 1

Task: Quick check: Formation of `O=C(O)c1ccc(O/N=C/c2cccc(C(=O)O)c2)cc1` ?
Result: 13

Task: Lookup `Fc1cc(F)cc(O/N=C/c2cc(Cl)cc(Cl)c2)c1`
Result: 90

* * *

biological target: Transthyretin (Homo sapiens); assay: Percentage compound remaining at the conclusion of the acid-mediated fibril formation assay (72 h) in absence of TTR, assay conditions, compound (7.2 uM), pH 4.4, 37C
assay.readout: Activity (%)
Report as a plain number; the unit % is understood.

Oc1c(I)cc(/C=N/Oc2ccccc2C(F)(F)F)cc1I | 89

Task: Quick check: Activity of `Oc1c(Br)cc(/C=N/Oc2ccccc2C(F)(F)F)cc1Br` ?
Result: 78

Task: Lookup `O=C(O)c1ccc(O/N=C/c2cc(I)c(O)c(I)c2)cc1`
Result: 91

Task: Lookup `O=C(O)c1ccc(O/N=C/c2c(Cl)cccc2Cl)cc1`
Result: 85

* * *

biological target: Transthyretin (Homo sapiens) (UniProt P02766); assay: Percentage of WT-TTR (3.6 uM) amyloid fibril formation at pH 4.4 upon incubation with the compound (7.2 uM)
A collection of compounds and their measured Formation
Report as: number unit

Before answering, review these 3 worked examples.
O=C(O)c1ccc(/C=N/Oc2ccc(C(=O)O)cc2)cc1 | 46%
O=C(O)c1ccc(/C=N/Oc2cc(F)cc(F)c2)cc1 | 9%
O=C(O)c1ccccc1O/N=C/c1ccccc1 | 91%

Task: Request body: readout Formation, system Transthyretin (Homo sapiens) (UniProt P02766), query `FC(F)(F)c1cccc(O/N=C/c2ccccc2)c1` . Return the value.
Result: 83%

Task: Lookup `O=C(O)c1cccc(/C=N/Oc2ccccc2C(=O)O)c1`
Result: 87%

Task: Lookup `O=C(O)c1ccc(O/N=C/c2cc(Cl)cc(Cl)c2)cc1`
Result: 9%

Task: Lookup `Clc1cc(Cl)cc(O/N=C/c2ccccc2)c1`
Result: 39%

Task: Lookup `O=C(O)c1cccc(O/N=C/c2cccc(C(F)(F)F)c2)c1`
Result: 27%

* * *

target: UniProtKB P02766; assay: Percentage of WT-TTR (3.6 uM) amyloid fibril formation at pH 4.4 upon incubation with the compound (7.2 uM)
A collection of compounds and their measured Formation
Report as a plain number; the unit % is understood.

Before answering, review these 3 worked examples.
Clc1cccc(Cl)c1/C=N/Oc1ccccc1 | 63
O=C(O)c1cccc(O/N=C/c2ccccc2)c1 | 50
FC(F)(F)c1cccc(O/N=C/c2ccccc2C(F)(F)F)c1 | 83

Task: Quick check: Formation of `FC(F)(F)c1cccc(O/N=C/c2cc(Cl)cc(Cl)c2)c1` ?
Result: 72

Task: Lookup `Oc1c(I)cc(/C=N/Oc2cc(Cl)cc(Cl)c2)cc1I`
Result: 4

Task: Lookup `O=C(O)c1cccc(O/N=C/c2cc(Cl)cc(Cl)c2)c1`
Result: 0

Task: Lookup `Fc1cc(F)cc(/C=N/Oc2cc(F)cc(F)c2)c1`
Result: 94

Task: Lookup `O=C(O)c1ccccc1O/N=C/c1c(Cl)cccc1Cl`
Result: 59

Task: Lookup `O=C(O)c1cccc(/C=N/Oc2cccc(C(=O)O)c2)c1`
Result: 15

Task: Lookup `O=C(O)c1ccc(/C=N/Oc2ccccc2C(=O)O)cc1`
Result: 87

Task: Lookup `O=C(O)c1ccccc1O/N=C/c1cccc(C(F)(F)F)c1`
Result: 74

Task: Lookup `O=C(O)c1ccc(/C=N/Oc2cccc(C(F)(F)F)c2)cc1`
Result: 12

Task: Lookup `Fc1cc(F)cc(O/N=C/c2ccccc2C(F)(F)F)c1`
Result: 71

Task: Lookup `O=C(O)c1cccc(O/N=C/c2cc(Br)c(O)c(Br)c2)c1`
Result: 0

Task: Lookup `Oc1c(I)cc(/C=N/Oc2cc(F)cc(F)c2)cc1I`
Result: 3

Task: Lookup `O=C(O)c1cccc(/C=N/Oc2cccc(C(F)(F)F)c2)c1`
Result: 9

Task: Lookup `FC(F)(F)c1ccccc1/C=N/Oc1ccccc1`
Result: 65

Task: Lookup `O=C(O)c1ccccc1/C=N/Oc1cc(Cl)cc(Cl)c1`
Result: 30

Task: Lookup `FC(F)(F)c1cccc(/C=N/Oc2ccccc2C(F)(F)F)c1`
Result: 57

Task: Lookup `Oc1c(I)cc(/C=N/Oc2ccccc2)cc1I`
Result: 0

Task: Lookup `O=C(O)c1cccc(/C=N/Oc2cc(Cl)cc(Cl)c2)c1`
Result: 3

Task: Lookup `FC(F)(F)c1ccccc1/C=N/Oc1cc(Cl)cc(Cl)c1`
Result: 32

* * *

target: Transthyretin (Homo sapiens) (UniProt P02766); experiment: Percentage of WT-TTR (3.6 uM) amyloid fibril formation at pH 4.4 upon incubation with the compound (7.2 uM)
A collection of compounds and their measured Formation
Report as a plain number; the unit % is understood.

Oc1c(Br)cc(/C=N/Oc2cc(Cl)cc(Cl)c2)cc1Br | 3
O=C(O)c1cccc(O/N=C/c2cc(I)c(O)c(I)c2)c1 | 0
C(=N\Oc1ccccc1)/c1ccccc1 | 96

--- query ---
Task: Quick check: Formation of `O=C(O)c1ccc(/C=N/Oc2ccccc2C(F)(F)F)cc1` ?
Result: 3
